Target: human carbonic anhydrase 9 (CAIX) (human, UniProt Q16790 38-459)
Assay: FACS competition on HT-29 cells against tracer 3BP-2776; pIC50 category C = pIC50 6.1-7.0
Starred links: 1 amine or outer side, 2 acyl side, 3 side chain; linkers in the order of their positions; H or OH if unused. Positions of bridges follow the written chain, without caps; N, C: chain ends. Non-standard residues stand in square brackets, D forms with d. mXylylene = c1cc(C[*:1])cc(C[*:2])c1
reportedMetric: pIC50

The measured pIC50 associated with Ac-V[dY]CEGDWLTWQC-NH2 (linker 3-12 via mXylylene; SMILES CC(=O)N[C@H](C(=O)N[C@H](Cc1ccc(O)cc1)C(=O)N[C@H]1CSCc2cccc(c2)CSC[C@@H](C(N)=O)NC(=O)[C@H](CCC(N)=O)NC(=O)[C@H](Cc2c[nH]c3ccccc23)NC(=O)[C@H]([C@@H](C)O)NC(=O)[C@H](CC(C)C)NC(=O)[C@H](Cc2c[nH]c3ccccc23)NC(=O)[C@H](CC(=O)O)NC(=O)CNC(=O)[C@H](CCC(=O)O)NC1=O)C(C)C) [3BP-3044] reads 6.1 to 7 pic50
